Values from PubChem BioAssay AID2060498

- Test system: 171881-019-R-J1-PDC tumor spheroids, viability;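 further: spheroids exposed to compounds for 7 days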
- Measurement Description: Anticancer human tumor 171881-019-R-J1-PDC patient-derived invasive breast carcinoma cell line growth inhibition [GQUAD]; active means viability on the fitted dose curve at most 10% of control; inactive means the rest
- Condition Info: second compound 0.316 µM; first compound 0.316 µM; spheroids with HUVEC and MSC
Respond using exactly one of the listed classes: True = active, False = inactive

Status in this test for O=C(NO)c1cnc(N2CCN(S(=O)(=O)c3ccc4ccccc4c3)CC2)nc1 + Cc1[nH]c2ccc(F)cc2c1-c1nc2c3cccnc3c3ncccc3c2[nH]1 ?
False

Fill in: this test's call for C#Cc1c(F)ccc2cc(O)cc(-c3ncc4c(N5CC6CCC(C5)N6)nc(OCC56CCCN5CC(F)C6)nc4c3F)c12 (stereo unspecified) + Cc1[nH]c2ccc(F)cc2c1-c1nc2c3cccnc3c3ncccc3c2[nH]1 is ___
False

Which result was noted for this molecule in the test: CC1COCCN1c1cc(C2(O)CC3CCC(C2)O3)c2cnn(-c3ccn[nH]3)c2n1 (stereo unspecified) + CN(C)c1ccc(Nc2c3ccc(NC(=O)CCN4CCCC4)cc3nc3cc(NC(=O)CCN4CCCC4)ccc23)cc1
True

Dear all, I need the recorded test outcome for CC1COCCN1c1cc(C2(S(C)(=N)=O)CC2)nc(-c2ccnc3[nH]ccc23)n1 (stereo unspecified) + Cc1cnc(CNC(=O)c2c(=O)c3ccc(N4CCCN(C)CC4)nc3n3c2sc2ccccc23)cn1 , thank you.
False

Called result for CC(=O)O[C@H]1C(=O)[C@@]2(C)[C@H]([C@H](OC(=O)c3ccccc3)[C@]3(O)C[C@H](OC(=O)[C@H](O)[C@@H](NC(=O)c4ccccc4)c4ccccc4)C(C)=C1C3(C)C)[C@]1(OC(C)=O)CO[C@@H]1C[C@@H]2O + CN(C)c1ccc(Nc2c3ccc(NC(=O)CCN4CCCC4)cc3nc3cc(NC(=O)CCN4CCCC4)ccc23)cc1
False

Per the records of this test, what outcome belongs to Cn1ncnc1[C@H]1c2n[nH]c(=O)c3cc(F)cc(c23)N[C@@H]1c1ccc(F)cc1 + CN(C)c1ccc(Nc2c3ccc(NC(=O)CCN4CCCC4)cc3nc3cc(NC(=O)CCN4CCCC4)ccc23)cc1 ?
False

Dear all, I need the recorded test outcome for O=c1[nH]cc(F)c(=O)[nH]1 + Cc1cnc(CNC(=O)c2c(=O)c3ccc(N4CCCN(C)CC4)nc3n3c2sc2ccccc23)cn1 , thank you.
False

Status in this test for O=C(c1cc(Cc2n[nH]c(=O)c3ccccc23)ccc1F)N1CCN(C(=O)C2CC2)CC1 + Cc1[nH]c2ccc(F)cc2c1-c1nc2c3cccnc3c3ncccc3c2[nH]1 ?
False

# outcome recorded in this test, key = COc1ccc([C@@H](O)c2cc(-c3ncnc4cc(N5CCOCC5)ccc34)c(F)cc2Cl)nn1 + CN(C)c1ccc(Nc2c3ccc(NC(=O)CCN4CCCC4)cc3nc3cc(NC(=O)CCN4CCCC4)ccc23)cc1
False

Which outcome did this test record for the molecule O=C(NO)c1cnc(N2CCN(S(=O)(=O)c3ccc4ccccc4c3)CC2)nc1 + CN(C)c1ccc(Nc2c3ccc(NC(=O)CCN4CCCC4)cc3nc3cc(NC(=O)CCN4CCCC4)ccc23)cc1 ?
False

Look up the recorded call for O=C(c1cc(Cc2n[nH]c(=O)c3ccccc23)ccc1F)N1CCN(C(=O)C2CC2)CC1 + Cc1cnc(CNC(=O)c2c(=O)c3ccc(N4CCCN(C)CC4)nc3n3c2sc2ccccc23)cn1 in this test.
False
